# experimental system: Peroxisome proliferator-activated receptor alpha (Homo sapiens, UniProt Q07869)
# Sequence (Q07869 whole entry): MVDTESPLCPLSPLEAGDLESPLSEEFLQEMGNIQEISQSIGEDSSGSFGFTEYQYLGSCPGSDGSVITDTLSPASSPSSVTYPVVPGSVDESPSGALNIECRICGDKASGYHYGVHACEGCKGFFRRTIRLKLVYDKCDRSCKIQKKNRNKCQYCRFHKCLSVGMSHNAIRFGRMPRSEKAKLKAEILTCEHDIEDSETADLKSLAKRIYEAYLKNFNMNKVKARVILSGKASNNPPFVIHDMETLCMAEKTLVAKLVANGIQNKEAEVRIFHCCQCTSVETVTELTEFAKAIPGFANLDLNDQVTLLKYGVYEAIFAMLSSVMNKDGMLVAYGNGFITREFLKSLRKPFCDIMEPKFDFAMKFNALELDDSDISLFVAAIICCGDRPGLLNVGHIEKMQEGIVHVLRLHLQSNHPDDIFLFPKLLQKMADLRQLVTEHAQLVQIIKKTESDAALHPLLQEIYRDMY
# measurement protocol: Agonist activity at human PPARalpha by transactivation assay
value type: EC50
A complete answer gives the number and then names the unit.

(Q) Request the reported EC50 associated with Cc1cc(Sc2cc(C#CCN3CCOCC3)nc(C#Cc3ccc(C(F)(F)F)cc3)c2)ccc1OCC(=O)O
(A) 100 nM
